# Tested on: P. aeruginosa ATCC 27853
# TEST: Broth microdilution MIC in CAMHB
# Format: cell-based
# CONDITION PARAMETERS: Pseudomonas aeruginosa, ATCC27853; MHB; read-out: Minimum Inhibitory Concentration, P. aeruginosa ATCC 27853
MIC for assorted compounds

Quick one: MIC for NC1(CN2CCN(C(=O)N[C@@H](C(=O)N[C@H]3Cc4cccc(C(=O)O)c4OB3O)c3c(F)cc(O)cc3F)C(=O)C2=O)CC1 (single isomer, unassigned) [Example 121] ?
> 128 µg/mL

Same for NCCN1CCN(C(=O)NC(C(=O)N[C@H]2Cc3cccc(C(=O)O)c3OB2O)c2c(F)c(F)c(O)c(F)c2F)C(=O)C1=O (stereo partly drawn) [Example 174]
> 128 µg/mL

Same for NC1(CN2CCN(C(=O)NC(C(=O)N[C@H]3Cc4cccc(C(=O)O)c4OB3O)c3cc(F)c(O)c(F)c3F)C(=O)C2=O)CC1 (single isomer, unassigned) [Example 245]
> 128 µg/mL

###

# Test system: N. gonorrhoeae WHO K
# TEST: Liquid broth MIC in Fastidious broth
# Format: cell-based
# CONDITION PARAMETERS: Neisseria gonorrhoeae, read-out: Minimum Inhibitory Concentration, N. gonorrhoeae WHO K
MIC for assorted compounds

Worked cases, answers included:
{"columns": ["COMPOUND", "MIC"],
 "data": [
  ["CCN1CCN(C(=O)NC(C(=O)N[C@H]2Cc3cccc(C(=O)O)c3OB2O)c2ccc(C(N)=O)c(O)c2)C(=O)C1=O (stereo partly drawn)", "16 to 32 µg/mL"],
  ["O=C(O)c1cccc2c1OB(O)[C@@H](NC(=O)C(NC(=O)N1CCNC1=O)c1c(F)cc(O)cc1F)C2 (stereo partly drawn)", "> 64 µg/mL"],
  ["CCN1CCN(C(=O)NC(C(=O)N[C@H]2Cc3cccc(C(=O)O)c3OB2O)c2cc(C#N)c(OC)cc2F)C(=O)C1=O (stereo partly drawn)", "> 64 µg/mL"],
  ["CCN1CCN(C(=O)NC(C(=O)N[C@H]2Cc3cccc(C(=O)O)c3OB2O)c2c(F)c(O)cc(O)c2F)C(=O)C1=O (stereo partly drawn)", "> 64 µg/mL"],
  ["O=C(O)c1cccc2c1OB(O)[C@@H](NC(=O)C(NC(=O)N1CCN(CCF)C(=O)C1=O)c1c(F)cc(O)cc1F)C2 (mixture of isomers)", "16 to 32 µg/mL"]
]}

Alright, here's another compound for you.
Quick one: MIC for O=C(O)c1c(F)ccc2c1OB(O)[C@@H](NC(=O)[C@H](NC(=O)N1CCNC1=O)c1c(F)cc(O)c(O)c1Cl)C2 (single isomer, unassigned) ?
> 64 µg/mL

###

# Tested on: P. aeruginosa ATCC 35151
# TEST: Broth microdilution MIC in CAMHB
# Format: cell-based
# CONDITION PARAMETERS: Pseudomonas aeruginosa, ATCC35151; MHB; hyper-permeable strain; read-out: Minimum Inhibitory Concentration, P. aeruginosa ATCC 35151
MIC for assorted compounds

{"columns": ["COMPOUND", "TARGET DESC", "EXPERIMENTAL ENDPOINT", "MEASURED VALUE"],
 "data": [
  ["CCN1CCN(C(=O)NC(C(=O)N[C@H]2Cc3cccc(C(=O)O)c3OB2O)c2ccc(P(=O)(O)O)cc2)C(=O)C1=O (stereo partly drawn) [Example 250]", "P. aeruginosa ATCC 35151", "MIC", "2 to 4 µg/mL"],
  ["CCN1CCN(C(=O)NC(C(=O)N[C@H]2Cc3cccc(C(=O)O)c3OB2O)c2cc(C#N)c(O)cc2F)C(=O)C1=O (stereo partly drawn) [Example 209]", "P. aeruginosa ATCC 35151", "MIC", "< 0.25 µg/mL"]
]}

Alright, here's another compound for you.
Quick one: MIC for CCN1CCN(C(=O)NC(C(=O)N[C@H]2Cc3cccc(C(=O)O)c3OB2O)c2ccc(O)c(NC(C)=O)c2)C(=O)C1=O (stereo partly drawn) [Example 17] ?
2 to 4 µg/mL

###

MIC for assorted compounds
# Tested on: P. aeruginosa ATCC 35151
# TEST: Broth microdilution MIC in CAMHB
# Assay type: cell-based
# CONDITION PARAMETERS: Pseudomonas aeruginosa, ATCC35151; MHB; hyper-permeable strain; read-out: Minimum Inhibitory Concentration, P. aeruginosa ATCC 35151

Worked cases, answers included:
{"columns": ["COMPOUND", "MIC"],
 "data": [
  ["CCN1CCN(C(=O)N[C@H](C(=O)N[C@H]2Cc3cccc(C(=O)O)c3OB2O)c2cc(O)cc(O)c2)C(=O)C1=O (single isomer, unassigned)", "2 to 4 µg/mL"],
  ["NCCN1CCN(C(=O)N[C@@H](C(=O)N[C@H]2Cc3cccc(C(=O)O)c3OB2O)c2cc(F)c(O)c(F)c2F)C(=O)C1=O (single isomer, unassigned)", "< 0.25 µg/mL"]
]}

Alright, here's another compound for you.
Quick one: MIC for NCCN1CCN(C(=O)NC(C(=O)N[C@H]2Cc3cccc(C(=O)O)c3OB2O)c2cc(F)c(O)c(Cl)c2)C(=O)C1=O (stereo partly drawn) ?
< 0.25 µg/mL

###

# Tested on: A. baumannii ATCC 17978
# TEST: Broth microdilution MIC in iron-depleted CAMHB (IDM)
# Assay type: cell-based
# CONDITION PARAMETERS: Acinetobacter baumannii, ATCC17978, read-out: Minimum Inhibitory Concentration, ATCC 17978
MIC for assorted compounds
Give just the numeric value; µg/mL need not be written.

{"columns": ["COMPOUND", "MEASURED VALUE"],
 "data": [
  ["CCN1CCN(C(=O)NC(C(=O)N[C@H]2Cc3ccc(F)c(C(=O)O)c3OB2O)c2cc(F)c(O)c(O)c2Cl)C(=O)C1=O (stereo partly drawn) [Example 42]", 0.25],
  ["CS(=O)(=O)N1CCN(C(=O)NC(C(=O)N[C@H]2Cc3ccc(F)c(C(=O)O)c3OB2O)c2ccc(O)c(O)c2Cl)C1=O (stereo partly drawn) [Example 23]", 0.25],
  ["O=C(O)c1c(F)ccc2c1OB(O)[C@@H](NC(=O)[C@H](NC(=O)N1CCNC1=O)c1c(F)cc(O)c(O)c1Cl)C2 (single isomer, unassigned) [Example 34]", 0.25],
  ["CS(=O)(=O)N1CCN(C(=O)N[C@@H](C(=O)N[C@H]2Cc3ccc(F)c(C(=O)O)c3OB2O)c2c(F)c(F)c(O)c(O)c2Cl)C1=O [Example 229]", 0.25]
]}

Alright, here's another compound for you.
Quick one: MIC for NC1(CN2CCN(C(=O)N[C@@H](C(=O)N[C@H]3Cc4ccc(F)c(C(=O)O)c4OB3O)c3cc(F)c(O)c(O)c3Cl)C(=O)C2=O)CC1 (single isomer, unassigned) [Example 133] ?
0.25

###

MIC for assorted compounds
# System: E. coli AG100A

Worked cases, answers included:
{"columns": ["COMPOUND", "EXPERIMENTAL ENDPOINT", "MEASURED VALUE"],
 "data": [
  ["NCCN1CCN(C(=O)N[C@@H](C(=O)N[C@H]2Cc3cccc(C(=O)O)c3OB2O)c2cccc(NS(N)(=O)=O)c2)C(=O)C1=O (single isomer, unassigned) [Example 114]", "MIC", "2 to 4 µg/mL"],
  ["NCCCN1CCN(C(=O)N[C@@H](C(=O)N[C@H]2Cc3cccc(C(=O)O)c3OB2O)c2cc(F)c(O)c(F)c2F)C(=O)C1=O (single isomer, unassigned) [Example 246]", "MIC", "> 128 µg/mL"]
]}

Alright, here's another compound for you.
Quick one: MIC for CCN1CCN(C(=O)NC(C(=O)N[C@H]2Cc3cccc(C(=O)O)c3OB2O)c2ccc(O)c(N)c2)C(=O)C1=O (stereo partly drawn) [Example 29] ?
2 to 4 µg/mL

###

# System: E. coli 901C
# TEST: Broth microdilution MIC in CAMHB
# Assay type: cell-based
# CONDITION PARAMETERS: Escherichia coli; E. coli 901C (hyper-permeable); MHB; read-out: Minimum Inhibitory Concentration, E. coli 901C
MIC for assorted molecules

{"columns": ["MOLECULE", "TARGET DESC", "MIC"],
 "data": [
  ["CCN1CCN(C(=O)NC(C(=O)N[C@H]2Cc3ccc(O)c(C(=O)O)c3OB2O)c2ccccc2)C(=O)C1=O (stereo partly drawn)", "E. coli 901C", "0.5 to 1 µg/mL"]
]}

Alright, here's another molecule for you.
Quick one: MIC for C[C@H]1CN(CCN)C(=O)C(=O)N1C(=O)N[C@@H](C(=O)N[C@H]1Cc2cccc(C(=O)O)c2OB1O)c1ncc(O)cc1F ?
0.5 to 1 µg/mL

###

# Test system: P. aeruginosa CDC-0054 producing VIM-4, OXA-50, and PAO
# TEST: Broth microdilution MIC in iron-depleted CAMHB (IDM)
# Type: cell-based
# CONDITION PARAMETERS: Pseudomonas aeruginosa, read-out: Minimum Inhibitory Concentration, P. aeruginosa CDC-0054
# Experimental: Example IV: In Vitro Antibacterial Assays in Iron-Depleted Cation-Adjusted Mueller-Hinton Broth […] Briefly, cryo-preserved bacterial cultures of challenge strains are streaked for isolation on appropriate agar medium, in this case cation-adjusted Mueller Hinton agar. […] After the dilution plates are set up the growing cultures are then diluted in a cuvette containing IDM and the optical density is measured at 600 nm. […]
EXPERIMENTAL ENDPOINT: MIC

Worked cases, answers included:
{"columns": ["COMPOUND", "MIC"],
 "data": [
  ["NS(=O)(=O)c1cc(O)cc(C(NC(=O)N2CCN(Cc3c(F)cc(O)c(O)c3Cl)C(=O)C2=O)C(=O)N[C@H]2Cc3cccc(C(=O)O)c3OB2O)c1 (stereo partly drawn)", "> 128 µg/mL"],
  ["C[C@H]1CN(CCNC(=O)c2ccc(O)c(O)c2Cl)C(=O)C(=O)N1C(=O)NC(C(=O)N[C@H]1Cc2cccc(C(=O)O)c2OB1O)c1ncc(O)cc1F (stereo partly drawn)", "2 to 4 µg/mL"],
  ["O=C(O)c1c(F)ccc2c1OB(O)[C@@H](NC(=O)C(NC(=O)N1CCN(CCF)C(=O)C1=O)c1c(F)cc(O)c(O)c1F)C2 (stereo partly drawn)", "2 to 4 µg/mL"]
]}

Quick one: MIC for NCCCN1CCN(C(=O)N[C@@H](C(=O)N[C@H]2Cc3ccc(F)c(C(=O)O)c3OB2O)c2c(F)c(F)c(O)c(O)c2Cl)C(=O)C1=O ?
0.5 to 1 µg/mL

Same for CS(=O)(=O)N1CCN(C(=O)N[C@@H](C(=O)N[C@H]2Cc3ccc(F)c(C(=O)O)c3OB2O)c2cc(F)c(O)c(O)c2Cl)C1=O (single isomer, unassigned)
0.5 to 1 µg/mL

Same for NCCN1CCN(C(=O)N[C@@H](C(=O)N[C@H]2Cc3ccc(F)c(C(=O)O)c3OB2O)c2c(F)cc(O)c(O)c2F)C(=O)C1=O (single isomer, unassigned)
8 to 16 µg/mL

Same for NCCCN1CCN(C(=O)N[C@H](C(=O)N[C@H]2Cc3ccc(F)c(C(=O)O)c3OB2O)c2ccc(O)c(O)c2Cl)C(=O)C1=O (single isomer, unassigned)
2 to 4 µg/mL

Same for CS(=O)(=O)N1CCN(C(=O)NC(C(=O)N[C@H]2Cc3ccc(F)c(C(=O)O)c3OB2O)c2ccc(O)c(O)c2Cl)C1=O (stereo partly drawn)
0.5 to 1 µg/mL

Same for CCN1CCN(C(=O)NC(C(=O)N[C@H]2Cc3ccc(F)c(C(=O)O)c3OB2O)c2c(F)cc(O)c(O)c2F)C(=O)C1=O (stereo partly drawn)
0.5 to 1 µg/mL
